Tested on: Escherichia coli TOP10
Assay: shrunken log2 fold change of peptide-encoding DNA abundance (4.5 h post-induction vs induction); higher = less antimicrobial activity (less host growth inhibition)
Settings: time post-induction: 4.5 h; library: site-saturation at positions 5, 18, 19, 20
Kindly supply the reported shrunken log2 fold change values for the records listed here.
Give bare numbers.

Use the examples below as a reference point.
RRIRWRPPRLPRPRPRPMNVPRP : 0.0542
RRIRPRPPRLPRPRPRPIIDPRP : -0.297
RRIRLRPPRLPRPRPRPMFHPRP : -0.681
RRIRMRPPRLPRPRPRPSGRPRP : 0.556
RRIRIRPPRLPRPRPRPKYSPRP : -0.216
RRIRWRPPRLPRPRPRPTLEPRP : 0.608

API: the following record is the query input.
Exercise: Find the recorded shrunken log2 fold change belonging to `RRIRKRPPRLPRPRPRPAETPRP` and report it.
Solution: 0.336

###

Kindly supply the reported shrunken log2 fold change values for the records listed here.
Tested on: Escherichia coli TOP10
Assay: shrunken log2 fold change of peptide-encoding DNA abundance (4.5 h post-induction vs induction); higher = less antimicrobial activity (less host growth inhibition)
Details: time post-induction: 4.5 h; library: site-saturation at positions 5, 18, 19, 20
Answers are plain numbers.

Use the examples below as a reference point.
RRIRRRPPRLPRPRPRPYPWPRP : -0.101
RRIRTRPPRLPRPRPRPFFVPRP : -0.142
RRIRQRPPRLPRPRPRPCVHPRP : -0.629
RRIRSRPPRLPRPRPRPRFSPRP : 0.44
RRIRTRPPRLPRPRPRPMREPRP : 0.864

Could you tell me shrunken log2 fold change for each of these sequences? They are listed below.
1. RRIRERPPRLPRPRPRPPFEPRP
2. RRIRWRPPRLPRPRPRPVWFPRP

Solution:
[0.363, 0.563]

###

Kindly supply the reported shrunken log2 fold change values for the records listed here.
System: Escherichia coli TOP10
Assay: shrunken log2 fold change of peptide-encoding DNA abundance (4.5 h post-induction vs induction); higher = less antimicrobial activity (less host growth inhibition)
Conditions: time post-induction: 4.5 h; library: site-saturation at positions 5, 18, 19, 20
Answers are plain numbers.

RRIRGRPPRLPRPRPRPWCQPRP : 0.224

Could you tell me shrunken log2 fold change for each of these sequences? They are listed below.
1. RRIRQRPPRLPRPRPRPNIVPRP
2. RRIRCRPPRLPRPRPRPETHPRP
3. RRIRSRPPRLPRPRPRPIRLPRP
4. RRIRERPPRLPRPRPRPMLSPRP
5. RRIRERPPRLPRPRPRPWYHPRP
6. RRIRVRPPRLPRPRPRPNGDPRP

Solution:
-0.044
0.0444
-0.27
-0.376
-0.588
-0.187

Could you tell me shrunken log2 fold change for each of these sequences? They are listed below.
1. RRIRDRPPRLPRPRPRPHHRPRP
2. RRIRWRPPRLPRPRPRPHIKPRP
3. RRIRQRPPRLPRPRPRPTGTPRP
4. RRIRIRPPRLPRPRPRPEKTPRP
5. RRIRGRPPRLPRPRPRPYNCPRP
6. RRIRNRPPRLPRPRPRPNSHPRP
7. RRIRWRPPRLPRPRPRPLHFPRP
8. RRIRPRPPRLPRPRPRPNNMPRP

Solution:
-0.277
-0.243
0.285
-0.0512
-0.0269
-0.858
0.136
-0.412

Could you tell me shrunken log2 fold change for each of these sequences? They are listed below.
1. RRIRTRPPRLPRPRPRPWYWPRP
2. RRIRPRPPRLPRPRPRPPRHPRP
3. RRIRTRPPRLPRPRPRPIHVPRP

Solution:
-0.0177
0.278
0.00961

Could you tell me shrunken log2 fold change for each of these sequences? They are listed below.
1. RRIRQRPPRLPRPRPRPDGMPRP
2. RRIRCRPPRLPRPRPRPQDIPRP

Solution:
1. -0.199
2. -0.213

###

Kindly supply the reported shrunken log2 fold change values for the records listed here.
Tested on: Escherichia coli TOP10
Assay: shrunken log2 fold change of peptide-encoding DNA abundance (4.5 h post-induction vs induction); higher = less antimicrobial activity (less host growth inhibition)
Details: time post-induction: 4.5 h; library: site-saturation at positions 5, 18, 19, 20
One number for each entry.

Use the examples below as a reference point.
RRIRPRPPRLPRPRPRPAHIPRP : -0.205
RRIRRRPPRLPRPRPRPSCCPRP : -0.0867
RRIRGRPPRLPRPRPRPIFCPRP : 0.333

Could you tell me shrunken log2 fold change for each of these sequences? They are listed below.
1. RRIRMRPPRLPRPRPRPMSTPRP
2. RRIRGRPPRLPRPRPRPSISPRP
3. RRIRYRPPRLPRPRPRPEYPPRP
4. RRIRSRPPRLPRPRPRPRLQPRP

Solution:
1. 0.0207
2. 0.0894
3. -0.01
4. 0.307

###

System: Escherichia coli TOP10
Assay: shrunken log2 fold change of peptide-encoding DNA abundance (4.5 h post-induction vs induction); higher = less antimicrobial activity (less host growth inhibition)
Conditions: time post-induction: 4.5 h; library: site-saturation at positions 5, 18, 19, 20
Rule: shrunken log2 fold change of -0.03 or more gives MET; anything lower gives NOT MET.

The examples below pair each entry with its known result.
RRIRWRPPRLPRPRPRPIWAPRP : MET
RRIRRRPPRLPRPRPRPHQGPRP : MET
RRIRERPPRLPRPRPRPETLPRP : MET

Consider the additional sequence presented here.
Exercise: Could you tell me if the measured shrunken log2 fold change of `RRIRARPPRLPRPRPRPHLNPRP` reaches -0.03 or more?
Solution: MET

###

System: Escherichia coli TOP10
Assay: shrunken log2 fold change of peptide-encoding DNA abundance (4.5 h post-induction vs induction); higher = less antimicrobial activity (less host growth inhibition)
Conditions: time post-induction: 4.5 h; library: site-saturation at positions 5, 18, 19, 20
Label scheme for shrunken log2 fold change: low = under -0.2, middle = from -0.2 up to 0.07, high = 0.07 and over

Exercise: Hi, small favor: classify `RRIRFRPPRLPRPRPRPFDVPRP` by its shrunken log2 fold change when you get a moment.
Solution: low

###

Test system: Escherichia coli TOP10
Assay: shrunken log2 fold change of peptide-encoding DNA abundance (4.5 h post-induction vs induction); higher = less antimicrobial activity (less host growth inhibition)
Settings: time post-induction: 4.5 h; library: site-saturation at positions 5, 18, 19, 20
Rule: shrunken log2 fold change of 0.006 or more gives T; anything lower gives F.

RRIRWRPPRLPRPRPRPSNAPRP : F
RRIRDRPPRLPRPRPRPQLKPRP : F
RRIRDRPPRLPRPRPRPCMLPRP : T
RRIRLRPPRLPRPRPRPDGGPRP : F
RRIRLRPPRLPRPRPRPHSEPRP : F
RRIRHRPPRLPRPRPRPVIKPRP : F

Exercise: Could you tell me if the measured shrunken log2 fold change of `RRIRQRPPRLPRPRPRPNANPRP` reaches 0.006 or more?
Solution: F

Exercise: Quick one: `RRIRLRPPRLPRPRPRPGKSPRP`
Solution: F

Exercise: Quick one: `RRIRSRPPRLPRPRPRPPRIPRP`
Solution: T

Exercise: Quick one: `RRIRNRPPRLPRPRPRPLNCPRP`
Solution: F

###

Tested on: Escherichia coli TOP10
Assay: shrunken log2 fold change of peptide-encoding DNA abundance (4.5 h post-induction vs induction); higher = less antimicrobial activity (less host growth inhibition)
Settings: time post-induction: 4.5 h; library: site-saturation at positions 5, 18, 19, 20
Kindly supply the reported shrunken log2 fold change values for the records listed here.

RRIRWRPPRLPRPRPRPWRVPRP : -0.245
RRIRDRPPRLPRPRPRPDDPPRP : -0.00152
RRIRSRPPRLPRPRPRPSRMPRP : -0.205
RRIRARPPRLPRPRPRPHLAPRP : 0.298
RRIRDRPPRLPRPRPRPFPEPRP : -0.144
RRIRARPPRLPRPRPRPFSWPRP : -0.0923
RRIRIRPPRLPRPRPRPFVMPRP : -0.275
RRIRWRPPRLPRPRPRPKYRPRP : 0.00658

API: the following record is the query input.
Exercise: Provide the documented shrunken log2 fold change with Escherichia coli TOP10 as the system for `RRIRCRPPRLPRPRPRPMKLPRP`
Solution: -0.0356

###

Test system: Escherichia coli TOP10;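 further: peptides expressed intracellularly from a pBAD plasmid library in pooled LB shake-flask culture, induced with 0.3% L-arabinose, DNA abundance read by NGS, three biological replicates, DESeq2 with apeglm shrinkage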
Test: shrunken log2 fold change of peptide-encoding DNA abundance (4.5 h post-induction vs induction); higher = less antimicrobial activity (less host growth inhibition)
Details: time post-induction: 4.5 h; library: site-saturation at positions 5, 18, 19, 20
Rule: shrunken log2 fold change of -0.01 or more gives Yes; anything lower gives No.

Exercise: Could you tell me if the measured shrunken log2 fold change of `RRIRARPPRLPRPRPRPFIVPRP` reaches -0.01 or more?
Solution: No

Exercise: Quick one: `RRIRVRPPRLPRPRPRPTDHPRP`
Solution: Yes

Exercise: Quick one: `RRIRWRPPRLPRPRPRPASQPRP`
Solution: Yes

Exercise: Quick one: `RRIRRRPPRLPRPRPRPYTLPRP`
Solution: No

Exercise: Quick one: `RRIRNRPPRLPRPRPRPCYTPRP`
Solution: No

Exercise: Quick one: `RRIRVRPPRLPRPRPRPCNTPRP`
Solution: No

Exercise: Quick one: `RRIRQRPPRLPRPRPRPQIYPRP`
Solution: Yes

Exercise: Quick one: `RRIRMRPPRLPRPRPRPDHKPRP`
Solution: Yes

Exercise: Quick one: `RRIRKRPPRLPRPRPRPEPPPRP`
Solution: Yes

Where do these numbers come from? They come from the supplement of paper PMC9112550.
